# System: P388 leukemia ip, CD2F1 mice, survival T/C
# assay_protocol: NCI In Vivo Anticancer Drug Screen. Data for tumor model P388 Leukemia (intraperitoneal) in CD2F1 (CDF1) mice
# test_context: endpoint: median survival time; dose: 6.25 mg/kg/injection; schedule: Q01DX009 (ip); vehicle: water; higher = longer survival
Toxic doses and inconclusive results are not listed.

{"compound": "CC1CC(C)(C)C2=NCCN21 (stereo not given)", "target_or_system": "P388 leukemia ip, CD2F1 mice, survival T/C", "T/C": "105 % of control"}
{"compound": "Nc1n[n+](-c2ccc3ccccc3c2)no1", "target_or_system": "P388 leukemia ip, CD2F1 mice, survival T/C", "T/C": "109 % of control"}
{"compound": "COc1cccc2c1C(=O)c1c(O)c3c(c(O)c1C2=O)C[C@@](O)(/C(C)=N/NC(=O)c1ccc(-c2ccccc2)cc1)C[C@@H]3OC1CC(N)C(O)C(C)O1 (stereo not given in full)", "target_or_system": "P388 leukemia ip, CD2F1 mice, survival T/C", "T/C": "109 % of control"}
{"compound": "Cc1nc(C(=O)O)c(C)c(=O)[nH]1", "target_or_system": "P388 leukemia ip, CD2F1 mice, survival T/C", "T/C": "119 % of control"}
{"compound": "Nc1n[n+](-c2cccc([N+](=O)[O-])c2)no1", "target_or_system": "P388 leukemia ip, CD2F1 mice, survival T/C", "T/C": "110 % of control"}
